biological target: HiBit-WIZ fusion protein (Homo sapiens, UniProt O95785+Q96SW2); assay: Quantification of WIZ protein levels in HiBit tag fusion protein assay (WIZ HiBit assay in 293T cells); assay type: cell-based; set-up: dose or concentration left out as unconfirmed; settings: HEK-293T, 100 minus Amax; 293T cells; read-out: % degradation of WIZ (100-Amax)
Sequence (O95785 whole entry, the tested form may be a part): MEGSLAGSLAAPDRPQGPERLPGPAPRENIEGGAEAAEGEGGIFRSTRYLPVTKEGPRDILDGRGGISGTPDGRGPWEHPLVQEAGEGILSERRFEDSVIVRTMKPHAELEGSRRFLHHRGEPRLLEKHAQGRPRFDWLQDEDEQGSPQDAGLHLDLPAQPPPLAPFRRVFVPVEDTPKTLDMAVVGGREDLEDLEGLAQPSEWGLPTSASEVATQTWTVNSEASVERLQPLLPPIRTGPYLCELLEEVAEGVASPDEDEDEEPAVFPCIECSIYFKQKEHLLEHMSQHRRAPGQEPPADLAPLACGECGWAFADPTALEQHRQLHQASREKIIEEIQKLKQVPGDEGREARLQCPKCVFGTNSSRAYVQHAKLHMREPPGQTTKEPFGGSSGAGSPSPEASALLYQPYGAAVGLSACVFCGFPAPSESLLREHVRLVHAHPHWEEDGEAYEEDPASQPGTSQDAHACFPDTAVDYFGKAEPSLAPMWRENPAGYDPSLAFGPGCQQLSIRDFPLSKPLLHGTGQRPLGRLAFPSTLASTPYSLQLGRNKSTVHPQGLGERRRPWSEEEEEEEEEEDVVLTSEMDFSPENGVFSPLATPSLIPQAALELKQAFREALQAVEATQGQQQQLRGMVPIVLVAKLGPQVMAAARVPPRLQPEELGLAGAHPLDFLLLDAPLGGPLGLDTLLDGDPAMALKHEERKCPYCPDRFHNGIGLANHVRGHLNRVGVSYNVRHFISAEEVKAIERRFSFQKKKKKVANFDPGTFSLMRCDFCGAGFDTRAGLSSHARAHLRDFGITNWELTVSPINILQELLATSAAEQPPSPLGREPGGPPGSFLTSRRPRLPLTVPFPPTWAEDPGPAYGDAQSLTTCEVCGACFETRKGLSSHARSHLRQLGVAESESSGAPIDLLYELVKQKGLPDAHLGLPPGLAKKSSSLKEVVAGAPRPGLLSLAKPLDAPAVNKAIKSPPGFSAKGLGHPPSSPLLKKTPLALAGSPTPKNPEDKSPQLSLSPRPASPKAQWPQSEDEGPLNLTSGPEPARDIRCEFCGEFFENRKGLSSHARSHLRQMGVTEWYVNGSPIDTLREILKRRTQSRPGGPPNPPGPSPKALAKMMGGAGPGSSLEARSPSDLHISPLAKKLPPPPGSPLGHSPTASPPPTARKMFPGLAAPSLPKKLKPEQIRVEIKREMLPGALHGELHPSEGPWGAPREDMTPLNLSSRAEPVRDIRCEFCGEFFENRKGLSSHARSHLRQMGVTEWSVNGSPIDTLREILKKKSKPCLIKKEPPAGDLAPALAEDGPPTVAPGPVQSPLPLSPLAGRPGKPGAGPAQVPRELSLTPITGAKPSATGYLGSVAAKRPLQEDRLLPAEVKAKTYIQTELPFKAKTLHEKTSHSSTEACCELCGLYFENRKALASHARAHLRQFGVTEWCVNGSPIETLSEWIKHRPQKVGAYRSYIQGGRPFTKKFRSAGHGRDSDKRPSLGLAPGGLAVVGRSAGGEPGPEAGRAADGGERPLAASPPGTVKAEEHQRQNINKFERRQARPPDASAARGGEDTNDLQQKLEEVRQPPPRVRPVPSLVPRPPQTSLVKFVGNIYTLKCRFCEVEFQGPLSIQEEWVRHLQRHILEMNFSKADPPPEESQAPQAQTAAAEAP
Sequence (Q96SW2 whole entry, the tested form may be a part): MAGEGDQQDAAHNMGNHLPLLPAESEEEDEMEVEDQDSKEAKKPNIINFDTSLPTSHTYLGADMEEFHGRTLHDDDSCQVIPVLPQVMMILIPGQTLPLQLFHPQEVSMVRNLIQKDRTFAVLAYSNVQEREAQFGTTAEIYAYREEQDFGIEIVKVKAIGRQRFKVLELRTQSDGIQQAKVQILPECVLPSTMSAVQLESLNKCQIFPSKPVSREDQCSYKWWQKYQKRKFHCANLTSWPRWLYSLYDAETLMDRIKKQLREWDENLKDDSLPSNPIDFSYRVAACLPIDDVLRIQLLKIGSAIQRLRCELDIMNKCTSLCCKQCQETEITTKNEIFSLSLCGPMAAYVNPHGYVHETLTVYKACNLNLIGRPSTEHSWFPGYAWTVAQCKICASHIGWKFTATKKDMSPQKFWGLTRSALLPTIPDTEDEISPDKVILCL
Sequence (Q16531 whole entry partner, the tested form may be a part): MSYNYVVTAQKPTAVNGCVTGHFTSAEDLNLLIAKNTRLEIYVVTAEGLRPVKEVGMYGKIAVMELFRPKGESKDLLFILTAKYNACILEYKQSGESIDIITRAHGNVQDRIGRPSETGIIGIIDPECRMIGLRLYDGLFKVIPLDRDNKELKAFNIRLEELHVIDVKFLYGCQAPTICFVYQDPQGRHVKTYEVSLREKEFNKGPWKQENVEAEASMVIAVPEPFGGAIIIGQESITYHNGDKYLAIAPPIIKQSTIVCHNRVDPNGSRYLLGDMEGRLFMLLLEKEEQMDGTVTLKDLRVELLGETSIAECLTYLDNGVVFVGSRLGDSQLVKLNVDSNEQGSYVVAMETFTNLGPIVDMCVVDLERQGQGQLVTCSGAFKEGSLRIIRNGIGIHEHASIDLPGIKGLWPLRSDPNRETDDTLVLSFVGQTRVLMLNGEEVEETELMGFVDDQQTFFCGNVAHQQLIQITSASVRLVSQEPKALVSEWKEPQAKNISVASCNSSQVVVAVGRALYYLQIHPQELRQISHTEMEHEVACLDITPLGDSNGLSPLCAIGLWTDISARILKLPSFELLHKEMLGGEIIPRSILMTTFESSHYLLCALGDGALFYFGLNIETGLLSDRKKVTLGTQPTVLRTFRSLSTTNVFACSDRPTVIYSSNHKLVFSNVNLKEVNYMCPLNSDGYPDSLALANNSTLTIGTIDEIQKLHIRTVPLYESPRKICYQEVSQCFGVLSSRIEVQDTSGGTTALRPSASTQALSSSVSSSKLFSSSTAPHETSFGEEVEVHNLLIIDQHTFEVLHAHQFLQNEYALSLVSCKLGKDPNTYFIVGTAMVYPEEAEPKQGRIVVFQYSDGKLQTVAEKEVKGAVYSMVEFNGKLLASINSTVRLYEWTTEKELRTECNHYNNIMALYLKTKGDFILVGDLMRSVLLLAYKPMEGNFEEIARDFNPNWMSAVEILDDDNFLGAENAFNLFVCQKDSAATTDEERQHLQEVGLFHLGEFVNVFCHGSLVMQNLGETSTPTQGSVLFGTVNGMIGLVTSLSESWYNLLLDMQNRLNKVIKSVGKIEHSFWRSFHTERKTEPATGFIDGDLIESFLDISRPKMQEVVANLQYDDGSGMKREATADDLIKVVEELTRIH
Strictly below 40% in Dmax: criterion met. Otherwise: criterion not met.

Molecule	Assayed System	Class
O=C1CCC(N2Cc3cc(OC[C@H]4CCCCN4Cc4ccc5ocnc5c4)ccc3C2=O)C(=O)N1 (stereo partly shown)	HiBit-WIZ fusion protein (Homo sapiens, UniProt O95785+Q96SW2)	criterion not met
CC(C)(C)OC(=O)N1CCN(c2ccc(CN3CCCC[C@@H]3COc3ccc4c(c3)CN(C3CCC(=O)NC3=O)C4=O)cn2)CC1 (stereo partly shown)	HiBit-WIZ fusion protein (Homo sapiens, UniProt O95785+Q96SW2)	criterion not met
O=C1CCC(N2Cc3cc(OC[C@H]4CCCCN4Cc4cccc(Cn5ccnc5)c4)ccc3C2=O)C(=O)N1 (stereo partly shown) [Compound I-50eh]	HiBit-WIZ fusion protein (Homo sapiens, UniProt O95785+Q96SW2)	criterion not met
CC#CCCOc1ccc(C(=O)N2CCCC[C@H]2COc2ccc3c(c2)CN(C2CCC(=O)NC2=O)C3=O)cc1 (stereo partly shown) [Compound I-72ew]	HiBit-WIZ fusion protein (Homo sapiens, UniProt O95785+Q96SW2)	criterion not met
CC(C)c1ccccc1C(=O)N1CCCC[C@H]1COc1ccc2c(c1)CN(C1CCC(=O)NC1=O)C2=O (stereo partly shown) [Compound I-72gi]	HiBit-WIZ fusion protein (Homo sapiens, UniProt O95785+Q96SW2)	criterion met
COc1ccncc1C(=O)N1CCCC[C@H]1COc1ccc2c(c1)CN(C1CCC(=O)NC1=O)C2=O (stereo partly shown) [Compound I-72bc]	HiBit-WIZ fusion protein (Homo sapiens, UniProt O95785+Q96SW2)	criterion met

Reference source: patent US11566022B2
